System: carbapenem-susceptible A. baumannii isolates (n = 54)
TEST: MIC, broth microdilution (EUCAST), carbapenem-susceptible A. baumannii isolates
Assay type: cell-based, Acinetobacter baumannii
COND: Acinetobacter baumannii, isolate Ab213; in combinations ETZ fixed at 8 mg/L
EXPERIMENTAL READOUT: MIC (µg/mL)
Respond numerically; units are µg/mL and should not be typed.

{"MOLECULE": "C[C@@H](O)[C@H]1C(=O)N2C(C(=O)O)=C(SCCN=CN)C[C@H]12 [imipenem]", "ASSAYED SYSTEM": "carbapenem-susceptible A. baumannii isolates (n = 54)", "UNIT DESCRIPTOR": "µg/mL", "MIC": 0.12}
{"MOLECULE": "CC1(C)[C@H](C(=O)O)N2C(=O)C[C@H]2S1(=O)=O [sulbactam]", "ASSAYED SYSTEM": "carbapenem-susceptible A. baumannii isolates (n = 54)", "UNIT DESCRIPTOR": "µg/mL", "MIC": 0.5}
{"MOLECULE": "C[n+]1ccn(C[C@@]2(C)[C@H](C(=O)[O-])N3C(=O)C[C@H]3S2(=O)=O)n1 [enmetazobactam]", "ASSAYED SYSTEM": "carbapenem-susceptible A. baumannii isolates (n = 54)", "UNIT DESCRIPTOR": "µg/mL", "MIC": 2}

Consider the additional molecule presented here.
Req: Param item = CO/N=C(\C(=O)N[C@@H]1C(=O)N2C(C(=O)[O-])=C(C[N+]3(C)CCCC3)CS[C@H]12)c1csc(N)n1 [cefepime] ; retrieve measured MIC.
Resp: 1
